organism: Rattus norvegicus; assay: Open TG-GATES - Regimen: Daily Repeat; format: toxicity, organism-based, Sprague-Dawley; set-up: regimen Daily Repeat, gender Male, age 6 weeks; details: in vivo, po, 1000 mg/kg, […], tissue Plasma, route gavage, dose level High, time 7 day
quantity kind: CRE (mg/dL)
Report the figure in mg/dL without appending any unit label.

Past entries and their recorded results:
Which CRE is reported for this compound? CN/C(=N/CCSCc1nc[nH]c1C)NC#N
0.5

Which CRE is reported for this compound? O=C(OC[C@H]1O[C@@H](OC(=O)c2cc(O)c(O)c(OC(=O)c3cc(O)c(O)c(O)c3)c2)[C@H](OC(=O)c2cc(O)c(O)c(OC(=O)c3cc(O)c(O)c(O)c3)c2)[C@@H](OC(=O)c2cc(O)c(O)c(OC(=O)c3cc(O)c(O)c(O)c3)c2)[C@@H]1OC(=O)c1cc(O)c(O)c(OC(=O)c2cc(O)c(O)c(O)c2)c1)c1cc(O)c(O)c(OC(=O)c2cc(O)c(O)c(O)c2)c1
0.5

Which CRE is reported for this compound? CCOc1ccc(NC(C)=O)cc1
0.2

Which CRE is reported for this compound? COC(=O)C1=C(C)NC(C)=C(C(=O)OC)C1c1ccccc1[N+](=O)[O-]
0.2

Which CRE is reported for this compound? Cc1nnc2n1-c1ccc(Cl)cc1C(c1ccccc1Cl)=NC2
0.2

Field: next compound
Which CRE is reported for this compound? CNC(=C[N+](=O)[O-])NCCSCc1ccc(CN(C)C)o1
0.4

====

The molecules listed here are annotated with their KIDNEY_L.
species: Rattus norvegicus; test: Open TG-GATES - Regimen: Single; assay type: toxicity, organism-based, Sprague-Dawley; set-up: regimen Single, gender Male, age 6 weeks; details: in vivo, po, 0 mg/kg, 9 h, tissue Kidney, route gavage, dose level Control
Report the figure in g without appending any unit label.

Past entries and their recorded results:
Which KIDNEY_L is reported for this molecule? CC(C)NNC(=O)c1ccncc1
0.9

Which KIDNEY_L is reported for this molecule? CS(=O)(=O)O.Cc1ccc(NC(=O)c2ccc(CN3CCN(C)CC3)cc2)cc1Nc1nccc(-c2cccnc2)n1 [IMATINIB MESYLATE]
0.9

Which KIDNEY_L is reported for this molecule? CNC(=C[N+](=O)[O-])NCCSCc1ccc(CN(C)C)o1
1

Which KIDNEY_L is reported for this molecule? CCCc1cc(=O)[nH]c(=S)[nH]1
0.8

Which KIDNEY_L is reported for this molecule? CN1C(=O)CCS(=O)(=O)C1c1ccc(Cl)cc1 (stereo unspecified)
0.9

Field: next molecule
Which KIDNEY_L is reported for this molecule? CN/C(=N/CCSCc1nc[nH]c1C)NC#N
0.9

====

species: Rattus norvegicus; test: Open TG-GATES - Regimen: Daily Repeat; format: toxicity, organism-based, Sprague-Dawley; design: regimen Daily Repeat, gender Male, age 6 weeks; conditions: in vivo, po, 0 mg/kg, […], tissue Plasma, route gavage, dose level Control, time 28 day
quantity kind: K (meq/L)
Report the figure in meq/L without appending any unit label.

Which K is reported for this compound? Nc1c2c(nc3ccccc13)CCCC2
4.1

Which K is reported for this compound? CN1C(=O)CCS(=O)(=O)C1c1ccc(Cl)cc1 (stereo not drawn)
4

Which K is reported for this compound? NC1=NC(=O)C(c2ccccc2)O1 (stereo not drawn)
3.7

Which K is reported for this compound? CCCc1cc(=O)[nH]c(=S)[nH]1
4.5

Which K is reported for this compound? CN/C(=N/CCSCc1nc[nH]c1C)NC#N
3.6

Which K is reported for this compound? O=C(OC[C@H]1O[C@@H](OC(=O)c2cc(O)c(O)c(OC(=O)c3cc(O)c(O)c(O)c3)c2)[C@H](OC(=O)c2cc(O)c(O)c(OC(=O)c3cc(O)c(O)c(O)c3)c2)[C@@H](OC(=O)c2cc(O)c(O)c(OC(=O)c3cc(O)c(O)c(O)c3)c2)[C@@H]1OC(=O)c1cc(O)c(O)c(OC(=O)c2cc(O)c(O)c(O)c2)c1)c1cc(O)c(O)c(OC(=O)c2cc(O)c(O)c(O)c2)c1
4.4

Which K is reported for this compound? COC(=O)C1=C(C)NC(C)=C(C(=O)OC)C1c1ccccc1[N+](=O)[O-]
3.9

Which K is reported for this compound? CC(C)NNC(=O)c1ccncc1
4

Which K is reported for this compound? CCOc1ccc(NC(C)=O)cc1
4

Which K is reported for this compound? CNC(=C[N+](=O)[O-])NCCSCc1ccc(CN(C)C)o1
3.9

Which K is reported for this compound? Brc1ccccc1
3.8

Which K is reported for this compound? CN(C)CCC(c1ccc(Cl)cc1)c1ccccn1 (stereo not drawn)
4.2

Which K is reported for this compound? Cc1nnc2n1-c1ccc(Cl)cc1C(c1ccccc1Cl)=NC2
4.2

====

The compounds listed here are annotated with their Ht.
organism: Rattus norvegicus; assay: Open TG-GATES - Regimen: Single; format: toxicity, organism-based, Sprague-Dawley; set-up: regimen Single, gender Male, age 6 weeks; settings: in vivo, po, 300 mg/kg, 24 h, tissue Blood, route gavage, dose level Middle
Report the figure in % without appending any unit label.

Which Ht is reported for this compound? CN/C(=N/CCSCc1nc[nH]c1C)NC#N
40.7

Which Ht is reported for this compound? COC(=O)C1=C(C)NC(C)=C(C(=O)OC)C1c1ccccc1[N+](=O)[O-]
40

Next:
Which Ht is reported for this compound? CNC(=C[N+](=O)[O-])NCCSCc1ccc(CN(C)C)o1
38.7

Which Ht is reported for this compound? O=C(OC[C@H]1O[C@@H](OC(=O)c2cc(O)c(O)c(OC(=O)c3cc(O)c(O)c(O)c3)c2)[C@H](OC(=O)c2cc(O)c(O)c(OC(=O)c3cc(O)c(O)c(O)c3)c2)[C@@H](OC(=O)c2cc(O)c(O)c(OC(=O)c3cc(O)c(O)c(O)c3)c2)[C@@H]1OC(=O)c1cc(O)c(O)c(OC(=O)c2cc(O)c(O)c(O)c2)c1)c1cc(O)c(O)c(OC(=O)c2cc(O)c(O)c(O)c2)c1
38.9

Which Ht is reported for this compound? Cc1nnc2n1-c1ccc(Cl)cc1C(c1ccccc1Cl)=NC2
40.8

====

The molecules listed here are annotated with their LIVER.
organism: Rattus norvegicus; assay: Open TG-GATES - Regimen: Single; type: toxicity, organism-based, Sprague-Dawley; parameters: regimen Single, gender Male, age 6 weeks; conditions: in vivo, po, 0 mg/kg, 24 h, tissue Liver, route gavage, dose level Control
Report the figure in g without appending any unit label.

Which LIVER is reported for this molecule? CS(=O)(=O)O.Cc1ccc(NC(=O)c2ccc(CN3CCN(C)CC3)cc2)cc1Nc1nccc(-c2cccnc2)n1 [IMATINIB MESYLATE]
10

Which LIVER is reported for this molecule? O=C(OC[C@H]1O[C@@H](OC(=O)c2cc(O)c(O)c(OC(=O)c3cc(O)c(O)c(O)c3)c2)[C@H](OC(=O)c2cc(O)c(O)c(OC(=O)c3cc(O)c(O)c(O)c3)c2)[C@@H](OC(=O)c2cc(O)c(O)c(OC(=O)c3cc(O)c(O)c(O)c3)c2)[C@@H]1OC(=O)c1cc(O)c(O)c(OC(=O)c2cc(O)c(O)c(O)c2)c1)c1cc(O)c(O)c(OC(=O)c2cc(O)c(O)c(O)c2)c1
9.4

====

The molecules listed here are annotated with their Na.
species: Rattus norvegicus; experiment: Open TG-GATES - Regimen: Daily Repeat; assay type: toxicity, organism-based, Sprague-Dawley; parameters: regimen Daily Repeat, gender Male, age 6 weeks; conditions: in vivo, po, 100 mg/kg, […], tissue Plasma, route gavage, dose level Low, time 14 day
Report the figure in meq/L without appending any unit label.

Which Na is reported for this molecule? CN/C(=N/CCSCc1nc[nH]c1C)NC#N
141.4

Next:
Which Na is reported for this molecule? COC(=O)C1=C(C)NC(C)=C(C(=O)OC)C1c1ccccc1[N+](=O)[O-]
143.2

Which Na is reported for this molecule? Cc1nnc2n1-c1ccc(Cl)cc1C(c1ccccc1Cl)=NC2
142.6

Which Na is reported for this molecule? CCOc1ccc(NC(C)=O)cc1
143.4

====

species: Rattus norvegicus; assay: Open TG-GATES - Regimen: Daily Repeat; format: toxicity, organism-based, Sprague-Dawley; set-up: regimen Daily Repeat, gender Male, age 6 weeks; settings: in vivo, po, 0 mg/kg, […], tissue Plasma, route gavage, dose level Control, time 7 day
quantity kind: IP

Past entries and their recorded results:
Which IP is reported for this molecule? Nc1c2c(nc3ccccc13)CCCC2 [TACRINE]
7.1 mg/dL

Which IP is reported for this molecule? COC(=O)C1=C(C)NC(C)=C(C(=O)OC)C1c1ccccc1[N+](=O)[O-] [NIFEDIPINE]
7.4 mg/dL

Which IP is reported for this molecule? Cc1nnc2n1-c1ccc(Cl)cc1C(c1ccccc1Cl)=NC2 [TRIAZOLAM]
7.6 mg/dL

Which IP is reported for this molecule? NC1=NC(=O)C(c2ccccc2)O1 (stereo unspecified) [PEMOLINE]
7.2 mg/dL

Which IP is reported for this molecule? Brc1ccccc1 [BROMOBENZENE]
7 mg/dL

Next:
Which IP is reported for this molecule? CCCc1cc(=O)[nH]c(=S)[nH]1 [PROPYLTHIOURACIL]
8 mg/dL
